test system: Apera spica-venti; experiment: Herbicidal activity in pre-emergence; type: in vivo; details: dose 250 g/ha, fifteen days after treatment, damage vs control
assayReadout: Herbicidal activity in pre-emergence

{"compound": "Cc1nnc([S+]([O-])Cc2c(C(F)(F)F)nn(C)c2OCC(F)(F)F)s1 (stereo not shown)", "Herbicidal activity in pre-emergence": "5 (91% of damage-death of the plant)"}
{"compound": "Cc1nnc([S+]([O-])Cc2c(Cl)cccc2Cl)s1 (stereo not shown)", "Herbicidal activity in pre-emergence": "5 (91% of damage-death of the plant)"}
{"compound": "O=S(=O)(c1nnc(C(F)(F)F)s1)c1c(Cl)cccc1Cl [CR1, reference compound]", "Herbicidal activity in pre-emergence": "0 (0-10% of damage)"}

Turning now to a further compound:
Incoming: # query: Herbicidal activity in pre-emergence of entry CCc1nnc([S+]([O-])Cc2c(C(F)(F)F)nn(C)c2OCC(F)(F)F)s1 (stereo not shown)
Outgoing: 5 (91% of damage-death of the plant)

* * *

Listed here: items and their measured Herbicidal activity in post-emergence.
test system: Apera spica-venti; experiment: Herbicidal activity in post-emergence; type: in vivo; conditions: dose 250 g/ha, fifteen days after treatment, damage vs control

Incoming: # query: Herbicidal activity in post-emergence of entry O=S(=O)(c1nnc(C(F)(F)F)s1)c1c(Cl)cccc1Cl [CR1, reference compound]
Outgoing: 0 (0-10% of damage)

Incoming: # query: Herbicidal activity in post-emergence of entry CCc1nnc([S+]([O-])Cc2c(C(F)(F)F)nn(C)c2OCC(F)(F)F)s1 (stereo not shown) [Nr. 121]
Outgoing: 5 (91% of damage-death of the plant)

Incoming: # query: Herbicidal activity in post-emergence of entry Cc1nnc([S+]([O-])Cc2c(C(F)(F)F)nn(C)c2OCC(F)(F)F)s1 (stereo not shown) [Nr. 9]
Outgoing: 5 (91% of damage-death of the plant)

Incoming: # query: Herbicidal activity in post-emergence of entry Cc1nnc([S+]([O-])Cc2c(Cl)cccc2Cl)s1 (stereo not shown) [Nr. 1]
Outgoing: 5 (91% of damage-death of the plant)

* * *

Listed here: items and their measured Herbicidal activity in pre-emergence.
system: Digitaria sanguinalis; assay: Herbicidal activity in pre-emergence; type: in vivo; settings: dose 250 g/ha, fifteen days after treatment, damage vs control

# count of solved cases: 3
{"molecule": "CCc1nnc([S+]([O-])Cc2c(C(F)(F)F)nn(C)c2OCC(F)(F)F)s1 (stereo not shown) [Nr. 121]", "result": "5 (91% of damage-death of the plant)"}
{"molecule": "Cc1nnc([S+]([O-])Cc2c(C(F)(F)F)nn(C)c2OCC(F)(F)F)s1 (stereo not shown) [Nr. 9]", "result": "5 (91% of damage-death of the plant)"}
{"molecule": "O=S(=O)(c1nnc(C(F)(F)F)s1)c1c(Cl)cccc1Cl [CR1, reference compound]", "result": "0 (0-10% of damage)"}

Turning now to a further molecule:
Incoming: # query: Herbicidal activity in pre-emergence of entry Cc1nnc([S+]([O-])Cc2c(Cl)cccc2Cl)s1 (stereo not shown) [Nr. 1]
Outgoing: 5 (91% of damage-death of the plant)

* * *

system: Lolium rigidum; test: Herbicidal activity in pre-emergence; type: in vivo; conditions: dose 250 g/ha, fifteen days after treatment, damage vs control
Listed here: items and their measured Herbicidal activity in pre-emergence.

{"molecule": "CCc1nnc([S+]([O-])Cc2c(C(F)(F)F)nn(C)c2OCC(F)(F)F)s1 (stereo not shown)", "targetOrSystem": "Lolium rigidum", "Herbicidal activity in pre-emergence": "5 (91% of damage-death of the plant)"}
{"molecule": "O=S(=O)(c1nnc(C(F)(F)F)s1)c1c(Cl)cccc1Cl [CR1, reference compound]", "targetOrSystem": "Lolium rigidum", "Herbicidal activity in pre-emergence": "0 (0-10% of damage)"}
{"molecule": "Cc1nnc([S+]([O-])Cc2c(Cl)cccc2Cl)s1 (stereo not shown)", "targetOrSystem": "Lolium rigidum", "Herbicidal activity in pre-emergence": "4 (71-90% of damage)"}

Incoming: # query: Herbicidal activity in pre-emergence of entry Cc1nnc([S+]([O-])Cc2c(C(F)(F)F)nn(C)c2OCC(F)(F)F)s1 (stereo not shown)
Outgoing: 5 (91% of damage-death of the plant)
